- MEASURED ON: Neuronal acetylcholine receptor subunit alpha-7 (Rattus norvegicus)
- Sequence (Q05941 whole entry): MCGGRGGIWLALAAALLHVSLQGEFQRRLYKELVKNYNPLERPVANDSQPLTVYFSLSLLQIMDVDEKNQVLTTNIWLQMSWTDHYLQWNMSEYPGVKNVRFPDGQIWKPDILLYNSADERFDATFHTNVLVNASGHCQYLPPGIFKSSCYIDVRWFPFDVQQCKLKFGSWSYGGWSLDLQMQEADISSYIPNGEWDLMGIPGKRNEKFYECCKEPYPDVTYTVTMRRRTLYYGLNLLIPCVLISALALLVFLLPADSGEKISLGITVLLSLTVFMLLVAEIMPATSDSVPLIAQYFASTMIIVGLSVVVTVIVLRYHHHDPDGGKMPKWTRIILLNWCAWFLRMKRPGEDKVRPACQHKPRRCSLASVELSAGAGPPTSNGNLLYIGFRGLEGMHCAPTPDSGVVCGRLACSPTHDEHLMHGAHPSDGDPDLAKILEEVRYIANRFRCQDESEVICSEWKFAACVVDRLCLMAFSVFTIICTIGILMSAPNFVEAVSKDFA
- PROTOCOL DETAILS: compound was evaluated for pKi
PARAMETER: Ki (nM)
Give a bare numeral; the unit nM is implied.

The reported Ki value, Neuronal acetylcholine receptor subunit alpha-7 (Rattus norvegicus), for `CC(=O)Oc1cccc(N2CCN(C)CC2)c1` reads 794

====

- PROTOCOL DETAILS: Compound was evaluated for pKi
Labelling: Log Ki reported below -6 becomes Y; at or above becomes N.

Here are 3 compounds together with their reported answers.
{"SMILES INPUT": "CN1CCN(c2cccc(N)c2)CC1", "LABEL": "Y"}
{"SMILES INPUT": "CN1CCN(c2cccc(F)c2)CC1.O=C(O)C(=O)O", "LABEL": "N"}
{"SMILES INPUT": "O=C(O)C(=O)O.c1cncc(N2CCNCC2)c1", "LABEL": "Y"}

Consider the additional compound presented here.
Exercise: Please let me know if `CN1CCN(c2cccnn2)CC1.O=C(O)C(=O)O` shows Log Ki below -6.
Solution: Y

====

- MEASURED ON: Neuronal acetylcholine receptor; alpha4/beta2 (Rattus norvegicus, UniProt P09483+P12390)
- Sequence (P09483 whole entry): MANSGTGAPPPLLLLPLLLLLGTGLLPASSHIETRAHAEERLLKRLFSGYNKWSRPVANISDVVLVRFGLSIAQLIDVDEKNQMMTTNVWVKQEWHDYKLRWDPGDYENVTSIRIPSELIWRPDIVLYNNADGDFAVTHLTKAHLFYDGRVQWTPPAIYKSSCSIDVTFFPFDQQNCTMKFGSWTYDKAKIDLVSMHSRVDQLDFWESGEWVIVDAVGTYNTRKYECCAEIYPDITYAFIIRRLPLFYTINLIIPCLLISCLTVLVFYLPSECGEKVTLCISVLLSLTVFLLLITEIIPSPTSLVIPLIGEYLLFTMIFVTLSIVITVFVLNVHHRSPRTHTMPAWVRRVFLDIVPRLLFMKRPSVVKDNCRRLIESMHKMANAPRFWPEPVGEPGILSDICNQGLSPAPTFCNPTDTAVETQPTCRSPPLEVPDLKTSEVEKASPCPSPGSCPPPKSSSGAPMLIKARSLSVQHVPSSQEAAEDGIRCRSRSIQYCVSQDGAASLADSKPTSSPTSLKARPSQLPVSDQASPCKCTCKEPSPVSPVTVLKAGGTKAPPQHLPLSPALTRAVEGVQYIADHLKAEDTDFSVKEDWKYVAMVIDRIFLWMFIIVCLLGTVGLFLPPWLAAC
- Sequence (P12390 whole entry): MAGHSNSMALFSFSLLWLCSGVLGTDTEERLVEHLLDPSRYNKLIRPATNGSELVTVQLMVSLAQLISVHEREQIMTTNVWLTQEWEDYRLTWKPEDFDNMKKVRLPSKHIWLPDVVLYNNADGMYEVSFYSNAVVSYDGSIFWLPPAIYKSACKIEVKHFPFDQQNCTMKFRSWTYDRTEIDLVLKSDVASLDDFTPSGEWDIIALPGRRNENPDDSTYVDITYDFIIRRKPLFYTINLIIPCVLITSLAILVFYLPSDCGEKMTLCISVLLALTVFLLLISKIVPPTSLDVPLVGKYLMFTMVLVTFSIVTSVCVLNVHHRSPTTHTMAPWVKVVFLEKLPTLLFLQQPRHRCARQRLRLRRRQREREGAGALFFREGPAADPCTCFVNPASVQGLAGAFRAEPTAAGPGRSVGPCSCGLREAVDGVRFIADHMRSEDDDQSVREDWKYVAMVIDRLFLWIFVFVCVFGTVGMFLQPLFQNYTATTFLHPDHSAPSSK
- PROTOCOL DETAILS: Binding affinity against nicotinic receptors from rat brain using [3H]cytisine as radioligand
pKi: −log10 of the molar value.
The entries below come with measured pKi values attached.

Consider the reported pKi for these compounds:
{"SMILES INPUT": "CN1CCN(c2cccc(C(F)(F)F)c2)CC1", "pKi": "< 5.00"}
{"SMILES INPUT": "CN1CCN(c2cccc(F)c2)CC1.O=C(O)C(=O)O", "pKi": 5.19}

Item: `CN1CCN(c2ccc([N+](=O)[O-])cc2)CC1` | pKi: < 5.00

The compound listed as `CN1CCN(c2cccc(C#N)c2)CC1` shows pKi equal to < 5.00

`CC(=O)c1ccc(N2CCN(C)CC2)cc1` has a reported pKi of < 5.00

Please fill in: pKi reported for `Cc1ccccc1N1CCN(C)CC1` = < 5.00

Data point: `C[N+]1(C)CCN(c2ccc3c(c2)OCO3)CC1.[I-]` ; pKi = 6.17

Record `Fc1ccc(N2CCNCC2)cc1` , field pKi: < 5.00

Looking up `Cc1cccc(N2CCN(C)CC2)c1` , I found its pKi recorded as < 5.00

// recorded pKi for `Fc1cccc(N2CCNCC2)c1` : < 5.00

====

- MEASURED ON: Neuronal acetylcholine receptor; alpha4/beta2 (Rattus norvegicus, UniProt P09483+P12390)
- PROTOCOL DETAILS: Binding affinity against nicotinic receptors from rat brain using [3H]cytisine as radioligand
pKi: −log10 of the molar value.
PARAMETER: pKi

{"SMILES INPUT": "CN1CCN(c2cccc(N)c2)CC1", "pKi": 6.74}
{"SMILES INPUT": "c1cc(N2CCNCC2)ccn1", "pKi": "< 5.00"}
{"SMILES INPUT": "O=C(O)C(=O)O.c1cncc(N2CCNCC2)c1", "pKi": 7.05}
{"SMILES INPUT": "CN1CCN(c2ccc(O)cc2)CC1", "pKi": "< 5.00"}
{"SMILES INPUT": "CC(=O)Nc1cccc(N2CCN(C)CC2)c1", "pKi": "< 5.00"}
{"SMILES INPUT": "CN1CCC(c2ccccc2)CC1", "pKi": "< 5.00"}
{"SMILES INPUT": "CC(=O)Oc1cccc(N2CCN(C)CC2)c1", "pKi": 6.10}
{"SMILES INPUT": "CN1CCN(C2=CC(=O)CC2)CC1", "pKi": "< 5.00"}

// returns pKi for `FC(F)(F)c1cccc(N2CCNCC2)c1` with Neuronal acetylcholine receptor; alpha4/beta2 (Rattus norvegicus, UniProt P09483+P12390); value = < 5.00

Reported pKi (Neuronal acetylcholine receptor; alpha4/beta2 (Rattus norvegicus, UniProt P09483+P12390)) for entry `CN1CC=C(c2ccccc2)CC1` is < 5.00
